- subjectOfTest: T1, 14-3-3σ, full-length, recombinant (human, UniProt P31947 1-248)
- T1 sequence (looked up): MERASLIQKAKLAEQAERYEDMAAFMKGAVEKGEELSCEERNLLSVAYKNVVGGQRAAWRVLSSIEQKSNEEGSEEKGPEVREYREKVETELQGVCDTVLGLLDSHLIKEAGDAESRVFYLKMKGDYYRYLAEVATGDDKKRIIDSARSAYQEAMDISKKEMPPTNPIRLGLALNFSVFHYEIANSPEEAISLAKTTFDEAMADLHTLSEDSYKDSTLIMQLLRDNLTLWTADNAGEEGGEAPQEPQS
- assayProtocol: fluorescence polarisation
[ ]: non-standard residue; d: D form. fluorescein = fluorescein label on the N-terminus; pT = C[C@@H](OP(=O)(O)O)[C@H](N)C(=O)O; pS = N[C@@H](COP(=O)(O)O)C(=O)O
Mark Y for Kd under 7 µM, N if at or over.

[[record]]
binder = "fluorescein-YSGH[pS]L-OH [GpIBα-ctp, fluorescein-labeled hexaphosphopeptide YSGHpSL-COOH]"
label = "N"

[[record]]
binder = "fluorescein-ARSW[pT]F-OH [IRL9-ctp, fluorescein-labeled hexaphosphopeptide ARSWpTF-COOH]"
label = "Y"

[[record]]
binder = "fluorescein-KRSV[pS]L-OH [GPR15-ctp, fluorescein-labeled hexaphosphopeptide KRSVpSL-COOH]"
label = "N"

[[record]]
binder = "fluorescein-RKKR[pS]V-OH [Task3-ctp, fluorescein-labeled hexaphosphopeptide RKKRpSV-COOH]"
label = "Y"

[[record]]
binder = "fluorescein-ALRRQ[pT]-OH [p27Kip1-ctp, fluorescein-labeled hexaphosphopeptide ALRRQpT-COOH]"
label = "N"

